- System: 323965-272-R-J2-PDC complex spheroid viability
- protocol.summary: Anticancer human tumor 323965-272-R-J2-PDC patient-derived pancreatic carcinoma cell line growth inhibition [CLK]
- condition.set: second compound 0.0316 µM; first compound 0.0316 µM; hits give low values

compound	measure.unit	viability, T/C
CCCS(=O)(=O)Nc1ccc(F)c(C(=O)c2c[nH]c3ncc(-c4ccc(Cl)cc4)cc23)c1F + CNC(=O)c1ccc(Nc2nc(OC3CCCC3)c3c(-c4ccc5nc(C)oc5c4)c[nH]c3n2)c(OC)c1	%	106
COc1ccc([C@@H](O)c2cc(-c3ncnc4cc(N5CCOCC5)ccc34)c(F)cc2Cl)nn1 + CNC(=O)c1ccc(Nc2nc(OC3CCCC3)c3c(-c4ccc5nc(C)oc5c4)c[nH]c3n2)c(OC)c1	%	99.2
CC(Nc1ccc2c(c1)OCCn1cc(N3C(=O)OCC3C(F)F)nc1-2)C(N)=O (configuration not stated) + CN1CCN(c2cc(C(=O)Nc3cc4cc(-c5cnn(C)c5)ccc4cn3)ccn2)CC1	%	91.5
Nc1ccn(C2OC(CO)C(O)C2(F)F)c(=O)n1 (configuration not stated) + CNC(=O)c1ccc(Nc2nc(OC3CCCC3)c3c(-c4ccc5nc(C)oc5c4)c[nH]c3n2)c(OC)c1	%	30.7
CC1(C)CCC(CN2CCN(c3ccc(C(=O)NS(=O)(=O)c4ccc(NCC5CCOCC5)c([N+](=O)[O-])c4)c(Oc4cnc5[nH]ccc5c4)c3)CC2)=C(c2ccc(Cl)cc2)C1 + CN1CCN(c2cc(C(=O)Nc3cc4cc(-c5cnn(C)c5)ccc4cn3)ccn2)CC1	%	91.3
C#Cc1c(F)ccc2cc(O)cc(-c3ncc4c(N5CC6CCC(C5)N6)nc(OCC56CCCN5CC(F)C6)nc4c3F)c12 (configuration not stated) + CNC(=O)c1ccc(Nc2nc(OC3CCCC3)c3c(-c4ccc5nc(C)oc5c4)c[nH]c3n2)c(OC)c1	%	92.6
C=C(F)C(=O)N1CCN(c2nc(OCC3CCCN3C)nc3c2CCN(c2cccc4cccc(Cl)c24)C3)CC1CC#N (configuration not stated) + CNC(=O)c1ccc(Nc2nc(OC3CCCC3)c3c(-c4ccc5nc(C)oc5c4)c[nH]c3n2)c(OC)c1	%	69.7

----------
- System: 323965-272-R-J2-PDC complex spheroid viability
- protocol.summary: Anticancer human tumor 323965-272-R-J2-PDC cell line growth inhibition [CLK];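 note: spheroids exposed to agents for seven days before readout; percent of DMSO vehicle control wells so 100% = untreated growth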
- condition.set: second compound 0.1 µM; first compound 0.01 µM; hits give low values
- Text: A high-throughput screen of multi-cell type tumor spheroids was designed to identify active combinations of […] and targeted small molecules. Complex spheroids include a stromal component modeled by human endothelial cells (HUVEC) and fibroblasts modeled by human mesenchymal stem cells (MSCs). […] Compounds. […] If the clinical Cmax for an agent had not been determined, the highest concentration tested was 10 microM. […]
Label fulfilled when viability, T/C < 70%; otherwise not fulfilled.

compound	target	class.assignment
COc1c(OCCCN2CCOCC2)ccc2c3n(c(=NC(=O)c4cnc(N)nc4)nc12)CCN3 + CNC(=O)c1ccc(Nc2nc(OC3CCCC3)c3c(-c4ccc5nc(C)oc5c4)c[nH]c3n2)c(OC)c1	323965-272-R-J2-PDC complex spheroid viability	not fulfilled
CCc1c2c(nc3ccc(O)cc13)-c1cc3c(c(=O)n1C2)COC(=O)[C@]3(O)CC + CN1CCN(c2cc(C(=O)Nc3cc4cc(-c5cnn(C)c5)ccc4cn3)ccn2)CC1	323965-272-R-J2-PDC complex spheroid viability	fulfilled
Cn1ncnc1[C@H]1c2n[nH]c(=O)c3cc(F)cc(c23)N[C@@H]1c1ccc(F)cc1 + CNC(=O)c1ccc(Nc2nc(OC3CCCC3)c3c(-c4ccc5nc(C)oc5c4)c[nH]c3n2)c(OC)c1	323965-272-R-J2-PDC complex spheroid viability	not fulfilled
Cn1ncnc1[C@H]1c2n[nH]c(=O)c3cc(F)cc(c23)N[C@@H]1c1ccc(F)cc1 + CN1CCN(c2cc(C(=O)Nc3cc4cc(-c5cnn(C)c5)ccc4cn3)ccn2)CC1	323965-272-R-J2-PDC complex spheroid viability	not fulfilled
CCN1CCN(Cc2ccc(Nc3ncc(F)c(-c4cc(F)c5nc(C)n(C(C)C)c5c4)n3)nc2)CC1 + CN1CCN(c2cc(C(=O)Nc3cc4cc(-c5cnn(C)c5)ccc4cn3)ccn2)CC1	323965-272-R-J2-PDC complex spheroid viability	fulfilled
CCc1c2c(nc3ccc(O)cc13)-c1cc3c(c(=O)n1C2)COC(=O)[C@]3(O)CC + CNC(=O)c1ccc(Nc2nc(OC3CCCC3)c3c(-c4ccc5nc(C)oc5c4)c[nH]c3n2)c(OC)c1	323965-272-R-J2-PDC complex spheroid viability	fulfilled
CCN1CCN(Cc2ccc(Nc3ncc(F)c(-c4cc(F)c5nc(C)n(C(C)C)c5c4)n3)nc2)CC1 + CNC(=O)c1ccc(Nc2nc(OC3CCCC3)c3c(-c4ccc5nc(C)oc5c4)c[nH]c3n2)c(OC)c1	323965-272-R-J2-PDC complex spheroid viability	not fulfilled
COc1c(OCCCN2CCOCC2)ccc2c3n(c(=NC(=O)c4cnc(N)nc4)nc12)CCN3 + CN1CCN(c2cc(C(=O)Nc3cc4cc(-c5cnn(C)c5)ccc4cn3)ccn2)CC1	323965-272-R-J2-PDC complex spheroid viability	fulfilled

----------
Here the recorded viability, T/C is given for each entry.
- System: 323965-272-R-J2-PDC complex spheroid viability
- protocol.summary: Anticancer human tumor 323965-272-R-J2-PDC cell line growth inhibition [CLK];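 note: spheroids exposed to agents for seven days before readout; percent of DMSO vehicle control wells so 100% = untreated growth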
- condition.set: second compound 1 µM; first compound 3.16 µM; hits give low values

molecule	viability, T/C [%]
COc1cccc2c1C(=O)c1c(O)c3c(c(O)c1C2=O)CC(O)(C(=O)CO)CC3OC1CC(N)C(O)C(C)O1 (centres undefined) + CNC(=O)c1ccc(Nc2nc(OC3CCCC3)c3c(-c4ccc5nc(C)oc5c4)c[nH]c3n2)c(OC)c1	9.89
COc1cccc2c1C(=O)c1c(O)c3c(c(O)c1C2=O)CC(O)(C(=O)CO)CC3OC1CC(N)C(O)C(C)O1 (centres undefined) + CN1CCN(c2cc(C(=O)Nc3cc4cc(-c5cnn(C)c5)ccc4cn3)ccn2)CC1	1.2
CC(Nc1ccc2c(c1)OCCn1cc(N3C(=O)OCC3C(F)F)nc1-2)C(N)=O (centres undefined) + CN1CCN(c2cc(C(=O)Nc3cc4cc(-c5cnn(C)c5)ccc4cn3)ccn2)CC1	2.66
O=c1[nH]cc(F)c(=O)[nH]1 + CN1CCN(c2cc(C(=O)Nc3cc4cc(-c5cnn(C)c5)ccc4cn3)ccn2)CC1	4.75
C=CC(=O)N1CCN(c2nc(=O)n(-c3c(C)ccnc3C(C)C)c3nc(-c4c(O)cccc4F)c(F)cc23)C(C)C1 (centres undefined) + CNC(=O)c1ccc(Nc2nc(OC3CCCC3)c3c(-c4ccc5nc(C)oc5c4)c[nH]c3n2)c(OC)c1	28.2
CC1(C)CCC(CN2CCN(c3ccc(C(=O)NS(=O)(=O)c4ccc(NCC5CCOCC5)c([N+](=O)[O-])c4)c(Oc4cnc5[nH]ccc5c4)c3)CC2)=C(c2ccc(Cl)cc2)C1 + CN1CCN(c2cc(C(=O)Nc3cc4cc(-c5cnn(C)c5)ccc4cn3)ccn2)CC1	2.45
COC1C=CCC(C)C(C)S(=O)(=O)NC(=O)c2ccc3c(c2)N(CC2CCC21)CC1(CCCc2cc(Cl)ccc21)CO3 (centres undefined) + CNC(=O)c1ccc(Nc2nc(OC3CCCC3)c3c(-c4ccc5nc(C)oc5c4)c[nH]c3n2)c(OC)c1	30.7
CC(Nc1ccc2c(c1)OCCn1cc(N3C(=O)OCC3C(F)F)nc1-2)C(N)=O (centres undefined) + CNC(=O)c1ccc(Nc2nc(OC3CCCC3)c3c(-c4ccc5nc(C)oc5c4)c[nH]c3n2)c(OC)c1	30.1
Nc1ccccc1NC(=O)c1ccc(CNC(=O)OCc2cccnc2)cc1 + CN1CCN(c2cc(C(=O)Nc3cc4cc(-c5cnn(C)c5)ccc4cn3)ccn2)CC1	2.06
CC1COCCN1c1cc(C2(S(C)(=N)=O)CC2)nc(-c2ccnc3[nH]ccc23)n1 (centres undefined) + CN1CCN(c2cc(C(=O)Nc3cc4cc(-c5cnn(C)c5)ccc4cn3)ccn2)CC1	2.35
CC(=O)O[C@H]1C(=O)[C@@]2(C)[C@H]([C@H](OC(=O)c3ccccc3)[C@]3(O)C[C@H](OC(=O)[C@H](O)[C@@H](NC(=O)c4ccccc4)c4ccccc4)C(C)=C1C3(C)C)[C@]1(OC(C)=O)CO[C@@H]1C[C@@H]2O + CN1CCN(c2cc(C(=O)Nc3cc4cc(-c5cnn(C)c5)ccc4cn3)ccn2)CC1	3.34
COc1ccc([C@@H](O)c2cc(-c3ncnc4cc(N5CCOCC5)ccc34)c(F)cc2Cl)nn1 + CN1CCN(c2cc(C(=O)Nc3cc4cc(-c5cnn(C)c5)ccc4cn3)ccn2)CC1	3.07
O=c1[nH]cc(F)c(=O)[nH]1 + CNC(=O)c1ccc(Nc2nc(OC3CCCC3)c3c(-c4ccc5nc(C)oc5c4)c[nH]c3n2)c(OC)c1	34.7
CC(=O)O[C@H]1C(=O)[C@@]2(C)[C@H]([C@H](OC(=O)c3ccccc3)[C@]3(O)C[C@H](OC(=O)[C@H](O)[C@@H](NC(=O)c4ccccc4)c4ccccc4)C(C)=C1C3(C)C)[C@]1(OC(C)=O)CO[C@@H]1C[C@@H]2O + CNC(=O)c1ccc(Nc2nc(OC3CCCC3)c3c(-c4ccc5nc(C)oc5c4)c[nH]c3n2)c(OC)c1	75.8
C=C(F)C(=O)N1CCN(c2nc(OCC3CCCN3C)nc3c2CCN(c2cccc4cccc(Cl)c24)C3)CC1CC#N (centres undefined) + CN1CCN(c2cc(C(=O)Nc3cc4cc(-c5cnn(C)c5)ccc4cn3)ccn2)CC1	1.97
COc1ccc([C@@H](O)c2cc(-c3ncnc4cc(N5CCOCC5)ccc34)c(F)cc2Cl)nn1 + CNC(=O)c1ccc(Nc2nc(OC3CCCC3)c3c(-c4ccc5nc(C)oc5c4)c[nH]c3n2)c(OC)c1	40.3
O=C(c1cc(Cc2n[nH]c(=O)c3ccccc23)ccc1F)N1CCN(C(=O)C2CC2)CC1 + CN1CCN(c2cc(C(=O)Nc3cc4cc(-c5cnn(C)c5)ccc4cn3)ccn2)CC1	3.67
C=C(F)C(=O)N1CCN(c2nc(OCC3CCCN3C)nc3c2CCN(c2cccc4cccc(Cl)c24)C3)CC1CC#N (centres undefined) + CNC(=O)c1ccc(Nc2nc(OC3CCCC3)c3c(-c4ccc5nc(C)oc5c4)c[nH]c3n2)c(OC)c1	31
O=C(c1cc(Cc2n[nH]c(=O)c3ccccc23)ccc1F)N1CCN(C(=O)C2CC2)CC1 + CNC(=O)c1ccc(Nc2nc(OC3CCCC3)c3c(-c4ccc5nc(C)oc5c4)c[nH]c3n2)c(OC)c1	51.3
